Cited source: ChEMBL document CHEMBL5550177

Test system: H9c2
Assay: Cytotoxicity against rat H9c2 cells assessed as cell viability upto 20 uM incubated for 24 hrs by CCK-8 assay
Format: toxicity, cell-based
Details: h9c2, 24 h
Assay Readout: Activity

Recorded Activity, per entry:
>  <Molecule>
O=C(CCC[C@@H]1[C@H]2CCCN3CCC[C@@H](CN1Cc1ccccc1)[C@@H]23)NC1CC1

>  <Activity>
Non-Toxic

$$$$
>  <Molecule>
O=C(CCC[C@@H]1[C@H]2CCCN3CCC[C@@H](CN1Cc1ccccc1)[C@@H]23)NCCc1c[nH]c2ccccc12

>  <Activity>
Non-Toxic

$$$$
>  <Molecule>
O=C(CCC[C@@H]1[C@H]2CCCN3CCC[C@@H](CN1Cc1ccccc1)[C@@H]23)Nc1cccnn1

>  <Activity>
Non-Toxic

$$$$
>  <Molecule>
O=C(CCC[C@@H]1[C@H]2CCCN3CCC[C@@H](CN1Cc1ccccc1)[C@@H]23)NC1CCCCC1

>  <Activity>
Non-Toxic

$$$$
>  <Molecule>
CCOCCNC(=O)CCC[C@@H]1[C@H]2CCCN3CCC[C@@H](CN1Cc1ccccc1)[C@@H]23

>  <Activity>
Non-Toxic

$$$$
>  <Molecule>
O=C(CCC[C@@H]1[C@H]2CCCN3CCC[C@@H](CN1Cc1ccccc1)[C@@H]23)NC1CCCC1

>  <Activity>
Non-Toxic

$$$$

## Task Look up Activity of "O=C(CCC[C@@H]1[C@H]2CCCN3CCC[C@@H](CN1Cc1ccccc1)[C@@H]23)NCCC1=CC=CCC1=S" and report it.
## Result Non-Toxic

## Task Look up Activity of "O=C(CCC[C@@H]1[C@H]2CCCN3CCC[C@@H](CN1Cc1ccccc1)[C@@H]23)NC1CCC1" and report it.
## Result Non-Toxic

## Task Look up Activity of O=C1CCC[C@@H]2[C@H]3CCCN4CCC[C@@H](CN12)[C@@H]34 [MATRINE] and report it.
## Result Non-Toxic

## Task Look up Activity of "O=C(CCC[C@@H]1[C@H]2CCCN3CCC[C@@H](CN1Cc1ccccc1)[C@@H]23)NCCc1ccc(O)cc1" and report it.
## Result Non-Toxic
